TEST SYSTEM: Cytochrome P450 1A1 (Homo sapiens, UniProt P04798)
Sequence (P04798 whole entry): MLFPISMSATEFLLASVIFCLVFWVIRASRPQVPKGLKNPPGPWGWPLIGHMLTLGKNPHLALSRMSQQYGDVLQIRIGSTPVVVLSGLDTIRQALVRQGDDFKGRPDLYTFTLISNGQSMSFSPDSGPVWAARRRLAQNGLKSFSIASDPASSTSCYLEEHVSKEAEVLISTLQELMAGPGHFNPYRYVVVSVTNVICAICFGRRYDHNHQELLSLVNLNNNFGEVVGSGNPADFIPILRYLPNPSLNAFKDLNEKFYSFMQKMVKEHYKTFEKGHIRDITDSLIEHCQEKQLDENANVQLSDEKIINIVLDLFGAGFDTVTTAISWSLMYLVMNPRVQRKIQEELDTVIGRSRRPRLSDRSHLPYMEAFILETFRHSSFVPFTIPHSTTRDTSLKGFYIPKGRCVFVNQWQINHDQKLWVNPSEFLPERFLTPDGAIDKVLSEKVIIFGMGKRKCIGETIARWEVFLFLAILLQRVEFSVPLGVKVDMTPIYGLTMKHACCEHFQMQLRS
ASSAY INFO: Inhibition of human recombinant CYP1A1 using 7-ethoxyresorufin as substrate incubated under dark condition for 15 mins in presence of NADPH by EROD fluorescence assay
QUANTITY: IC50

Problem: Respond only with IC50 recorded for `O=C(Nc1ccc(I)cc1)c1nc(-c2ccccc2)cs1`
Result: 164 nM

Problem: Respond only with IC50 recorded for `NC(=O)c1cccc(-c2csc(C(=O)Nc3ccc(OC(F)F)cc3)n2)c1`
Result: 64.4 nM

Problem: Respond only with IC50 recorded for `O=C(Nc1cc(Cl)cc(Cl)c1)c1nc(-c2ccccc2)cs1`
Result: 223 nM

Problem: Respond only with IC50 recorded for `O=C(Nc1ccc(OC(F)F)cc1)c1nc(-c2ccccc2)cs1`
Result: 210 nM

Problem: Respond only with IC50 recorded for `NC(=O)c1ccc(-c2csc(C(=O)Nc3cc(Cl)cc(Cl)c3)n2)cc1`
Result: > 100000 nM

Problem: Respond only with IC50 recorded for `Cc1sc(C(=O)Nc2ccc(OC(F)F)cc2)nc1-c1cccc(Cl)c1`
Result: 128 nM

Problem: Respond only with IC50 recorded for `O=C(Nc1ccc(Cl)cc1Cl)c1nc(-c2ccccc2F)cs1`
Result: 197 nM

Problem: Respond only with IC50 recorded for `NC(=O)c1ccc(-c2csc(C(=O)Nc3ccc(C(F)(F)F)cc3)n2)cc1`
Result: 141 nM

Problem: Respond only with IC50 recorded for `O=C(Nc1cc(Cl)ccc1Cl)c1nc(-c2ccccc2)cs1`
Result: 208 nM

Problem: Respond only with IC50 recorded for `O=C(Nc1cc(Cl)cc(Cl)c1)c1nc(-c2ccc(F)cc2)c(-c2ccccc2)s1`
Result: 121 nM

These measurements were taken from ChEMBL document CHEMBL6182948.
